Provenance of the data: patent US20230105029A1

Below, each entry is listed alongside its reported pIC50.
- tested_target: T1, human IL4Rα expressed on 293F-IL4Rα cells (human, UniProt P24394 26-825)
- T1 construct: whole, on cells; also called cell surface human IL4Rα
- experimental_protocol: flow cytometry, blocks biotin-IL4 binding to 293F-IL4Rα cells
Here pIC50 is given on a logarithmic scale as minus log10 of the concentration in mol/L.

Some binders with known pIC50 results, for comparison:
binder: mouse antibody B9D1D11F8D8 (antibody, V domains shown, Mouse hybridoma mAb) VH: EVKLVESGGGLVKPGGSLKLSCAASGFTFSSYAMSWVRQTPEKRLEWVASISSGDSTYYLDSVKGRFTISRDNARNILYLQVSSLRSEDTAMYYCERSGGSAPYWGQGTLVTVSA VL: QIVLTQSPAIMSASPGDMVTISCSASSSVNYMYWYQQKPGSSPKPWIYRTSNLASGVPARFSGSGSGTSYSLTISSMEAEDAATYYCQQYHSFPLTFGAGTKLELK
pIC50: 9.12
//
binder: mouse antibody B8G11F2B7G5E8 (antibody, V domains shown, Mouse hybridoma mAb; also called Mouse B8G11F2B7G5E8; mAb B8G11F2B7G5E8) VH: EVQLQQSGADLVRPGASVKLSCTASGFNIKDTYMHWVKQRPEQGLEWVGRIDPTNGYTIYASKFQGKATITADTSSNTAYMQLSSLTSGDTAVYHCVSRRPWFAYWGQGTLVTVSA VL: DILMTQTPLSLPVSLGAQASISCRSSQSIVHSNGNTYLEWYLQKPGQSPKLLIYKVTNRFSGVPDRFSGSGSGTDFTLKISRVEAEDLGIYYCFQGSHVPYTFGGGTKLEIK
pIC50: 9.10
//
binder: mouse antibody C2B2F7B7 (antibody, V domains shown, Mouse hybridoma mAb) VH: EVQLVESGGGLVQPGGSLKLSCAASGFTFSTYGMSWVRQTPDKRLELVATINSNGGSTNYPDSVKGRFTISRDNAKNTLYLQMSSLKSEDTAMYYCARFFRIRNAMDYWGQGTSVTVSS VL: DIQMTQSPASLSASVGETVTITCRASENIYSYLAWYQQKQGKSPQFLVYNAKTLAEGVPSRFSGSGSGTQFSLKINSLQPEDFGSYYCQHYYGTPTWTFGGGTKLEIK
pIC50: 9.40
//
binder: mouse antibody C2C1A1A1 (antibody, V domains shown, Mouse hybridoma mAb; also called Mouse C2C1A1A1) VH: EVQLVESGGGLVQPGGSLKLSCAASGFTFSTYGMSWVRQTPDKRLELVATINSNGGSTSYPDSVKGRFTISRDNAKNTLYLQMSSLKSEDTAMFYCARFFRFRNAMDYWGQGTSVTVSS VL: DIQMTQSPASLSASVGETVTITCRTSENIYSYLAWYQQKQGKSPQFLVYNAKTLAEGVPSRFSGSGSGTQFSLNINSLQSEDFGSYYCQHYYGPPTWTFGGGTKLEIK
pIC50: 9.36

Query: What pIC50 value was documented for this binder, mouse antibody B1D2F7D3B5 (antibody, V domains shown, Mouse hybridoma mAb) VH: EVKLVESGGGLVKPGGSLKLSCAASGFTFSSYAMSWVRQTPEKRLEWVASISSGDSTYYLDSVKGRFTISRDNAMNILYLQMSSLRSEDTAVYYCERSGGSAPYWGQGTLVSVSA VL: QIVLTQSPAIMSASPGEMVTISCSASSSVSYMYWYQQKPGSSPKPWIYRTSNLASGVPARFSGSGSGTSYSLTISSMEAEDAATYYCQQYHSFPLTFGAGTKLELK ?
Reply: 9.11
